Kindly state Purity HCl 0.1M 12 days for each of the entries shown.
# protocol-details: Chemical stability testing: incubation in HCl, NaOH, H2O2 or NH4HCO3 at 40° C., remaining purity by RP-HPLC
# Type: physicochemical
# reported-conditions: 40° C., 2 mg/ml, RP-HPLC, relative to the purity at T=0
No end group written: not given here.
Numbers only, in %.

These recorded examples may help you get a feel for the data.
Lab note: [Gly2, Glu3, Ser8, Leu10, Ala11,16,24,28]hGLP-2(1-33)-NH2 (HGEGSFSSELATILDALAARDFIAWLIATKITD-NH2) [Compound 1858] gave Purity HCl 0.1M 12 days of 88

Lab note: [Gly2, Glu3, Ser8, Leu10, Ala11,16,24,28]hGLP-2(1-33)-(Lys)6-NH2 (HGEGSFSSELATILDALAARDFIAWLIATKITDKKKKKK-NH2) [Compound 1849] gave Purity HCl 0.1M 12 days of 64

Lab note: [Gly2, Glu3, Ser8,11, Leu10, Ala16,24,28]hGLP-2(1-33)-(Lys)6-NH2 (HGEGSFSSELSTILDALAARDFIAWLIATKITDKKKKKK-NH2) [Compound 1846] gave Purity HCl 0.1M 12 days of 70

Lab note: [Gly2, Glu3, Thr5, Ser8, Leu10, Ala11,16,24,28]hGLP-2(1-33)-(Lys)6-NH2 (HGEGTFSSELATILDALAARDFIAWLIATKITDKKKKKK-NH2) [Compound 1848] gave Purity HCl 0.1M 12 days of 63

Could you now consider this next substance?
Lab note: [Gly2, Thr7, Ser8, Leu10, Ala11,24]hGLP-2(1-30)-NH2 (HGDGSFTSELATILDNLAARDFIAWLIQTK-NH2) [Compound 1834] gave Purity HCl 0.1M 12 days of 38

----------
# System: male C57BL mice
# protocol-details: Screening for intestinal growth effects (small intestine and colon mass relative to body weight, small intestine-colon sensitivity index)
# Format: in vivo
# reported-conditions: male C57BL mice, 30 nmol/kg s.c. twice daily for ten days; third value column
# Method: The ability of the present compounds to stimulate intestinal growth was determined in male C57BL mice. Individual groups (n=6) of mice were given 30 nmol/kg of each compound, s.c, twice daily for ten consecutive days. For comparison purposes other groups of animals were given either an equimolar dose of [Gly2]GLP-2 (SEQ ID NO:54) or vehicle (phosphate buffered saline, pH 7.4) in the same dosing regimen. […]
No end group written: not given here.
Kindly state small intestine-colon sensitivity index, (SI/Colon)X/(SI/Colon)[Gly2]GLP-2 % for each of the entries shown.
Give bare numbers, in % [Gly2]GLP-2.

The recorded small intestine-colon sensitivity index, (SI/Colon)X/(SI/Colon)[Gly2]GLP-2 % with male C57BL mice for [Gly2, Glu3, Thr5, Ser8,11, Leu10, Ala16,24,28]hGLP-2(1-33)-NH2 (HGEGTFSSELSTILDALAARDFIAWLIATKITD-NH2) [Compound 1853] was 105

The recorded small intestine-colon sensitivity index, (SI/Colon)X/(SI/Colon)[Gly2]GLP-2 % with male C57BL mice for [Gly2, Glu3, Thr5, Leu10, Ser11, Ala16,24,28]hGLP-2(1-33)-(Lys)6-NH2 (HGEGTFSDELSTILDALAARDFIAWLIATKITDKKKKKK-NH2) [Compound 1845] was 107

The recorded small intestine-colon sensitivity index, (SI/Colon)X/(SI/Colon)[Gly2]GLP-2 % with male C57BL mice for [Gly2, Glu3, Thr5, Ser8,11, Leu10, Ala16,24,28]hGLP-2(1-33)-(Lys)6-NH2 (HGEGTFSSELSTILDALAARDFIAWLIATKITDKKKKKK-NH2) [Compound 1844] was 119

The recorded small intestine-colon sensitivity index, (SI/Colon)X/(SI/Colon)[Gly2]GLP-2 % with male C57BL mice for [Gly2, Leu10, Ser11, Ala24]hGLP-2(1-30)-NH2 (HGDGSFSDELSTILDNLAARDFIAWLIQTK-NH2) [Compound 1830] was 94

The recorded small intestine-colon sensitivity index, (SI/Colon)X/(SI/Colon)[Gly2]GLP-2 % with male C57BL mice for [Gly2, Leu10, Lys11, Ala24]hGLP-2(1-30)-NH2 (HGDGSFSDELKTILDNLAARDFIAWLIQTK-NH2) [Compound 1835] was 91

---
The recorded small intestine-colon sensitivity index, (SI/Colon)X/(SI/Colon)[Gly2]GLP-2 % with male C57BL mice for [Gly2, Glu3, Thr5, Leu10, Lys11, Ala16,24,28]hGLP-2(1-33)-(Lys)6-NH2 (HGEGTFSDELKTILDALAARDFIAWLIATKITDKKKKKK-NH2) [Compound 1851] was 114
